We begin with a simple list: items and their reported L. mexicana Promastigote SI vs. Hepatocytes.
test system: L. mexicana promastigotes; test: MTT viability assay against L. mexicana promastigotes; format: cell-based, Leishmania mexicana; conditions: CC50 HepG2 hepatocytes/IC50 L. mexicana
experimental-endpoint: L. mexicana Promastigote SI vs. Hepatocytes

smiles-input | readout-relation | reported-result
Cc1nn(-c2ccccc2)c(O)c1C(c1ccc(O)c(O)c1)c1c(C)nn(-c2ccccc2)c1O | > | 14.3
COc1cc(C(c2c(C)nn(-c3ccccc3)c2O)c2c(C)nn(-c3ccccc3)c2O)cc(OC)c1O | > | 4.3
Cc1nn(-c2ccccc2)c(O)c1C(c1ccccc1)c1c(C)nn(-c2ccccc2)c1O | > | 3.1
Cc1nn(-c2ccccc2)c(O)c1C(c1cccc(O)c1)c1c(C)nn(-c2ccccc2)c1O | > | 5.6
Cc1nn(-c2ccccc2)c(O)c1C(c1ccc(F)cc1)c1c(C)nn(-c2ccccc2)c1O | = | 0.8
Cc1nn(-c2ccccc2)c(O)c1C(c1ccc(C(F)(F)F)cc1)c1c(C)nn(-c2ccccc2)c1O | = | 6.1
COc1cccc(C(c2c(C)nn(-c3ccccc3)c2O)c2c(C)nn(-c3ccccc3)c2O)c1 | > | 10
Cc1nn(-c2ccccc2)c(O)c1C(c1ccccc1C(F)(F)F)c1c(C)nn(-c2ccccc2)c1O | = | 3.5
COc1ccc(C(c2c(C)nn(-c3ccccc3)c2O)c2c(C)nn(-c3ccccc3)c2O)cc1O | > | 10
Cc1nn(-c2ccccc2)c(O)c1C(c1cc(C(F)(F)F)cc(C(F)(F)F)c1)c1c(C)nn(-c2ccccc2)c1O | = | 4.3
COC(=O)c1ccc(C(c2c(C)nn(-c3ccccc3)c2O)c2c(C)nn(-c3ccccc3)c2O)cc1 | = | 2.2
Cc1nn(-c2ccccc2)c(O)c1C(c1ccc(OC(F)(F)F)cc1)c1c(C)nn(-c2ccccc2)c1O | = | 8.7
Cc1nn(-c2ccccc2)c(O)c1C(c1cc(O)ccc1[N+](=O)[O-])c1c(C)nn(-c2ccccc2)c1O | > | 4.8
